Measurement description: soluble on expression in E. coli; label from the status in PepcDB or PDB records
Measurement type: soluble on expression in E. coli

Input sequence	soluble on expression in E. coli
MSLATIKDVAQRAGVSPSTASRAMHGSKIISKPTRDKVIKAARELNYAPDFNAQNLATKASNTIGVVLPVDHHEIFSNPFFLEMIRGINEVCSKNGAMTTLATGISSDELVHNIDVMIAQGHIKTFILLYSEKNDPVVERLKQFDVQYVVIGKPYQDVNKTSYVDNDNIQAGTDAAQYLIDHGHRRIGFLYSDLSRMVQSDRMLGYQRVMMQNQLPNIMLEERFETHAAGVKTLHKFFEQYPDVTGFVAVDDMLALKLQQVLHNDPNWKVKQFSLIGFNNSIFSDLAHPMLTSIAVFPQRLGEEAAKIAMADHPADELSTAVIVPHQIVKRHSVHQIKSEGHHHHHH	soluble
AIAEVLRPPLININGRIYRKNPVQEETYEEEEEDCSYSEAAVDQCLDEPCDAHNIEQTDRGFRCALDVPSVLYKYIIGKKGETRRRLESETKTSINIPKQGVEGQIVVTGAHRPSVSSAVTRIEVLIDSFRRKQPFTHFLSFALNHAQVREGFLRFREEVLEHCSQDSGVDVSIFQNPDKLHLTIGTLVLLNQQEVTRANELLHQCQDTIREITGAEALPVEVRGVEYMNDDPSMVDVLYAKVSVQDGSDRLQQISDRLVECFVSAGLMERERDRVKIHATVMNTLFRRDPSAEDRGAPARANPRDREAFNGKNILQMFGDFYFGAFELNSVQISQRFSTDSSGYYSSAGHITFS	soluble
MGSDKIHHHHHHMKCNDKLAPFEVFDHVVNKKLSFRHVTMDDVDMLHSWMHEEHVIPYWKLNIPLVDYKKHLQTFLNDDHQTLMVGAINGVPMSYWESYWVKEDIIANYYPFEEHDQGIHLLIGPQEYLGQGLIYPLLLAIMQQKFQEPDTNTIVAEPDRRNKKMIHVFKKCGFQPVKEVELPDKIGLLMKCEQNVFEKRWSDWKMNKF	not soluble
MSEAPATEHGQCLCGAVGFTATLGAREFGVCHCSMCRRWSGGAFMAVECTDIAFENEQRLGVYSSSKWGERCFCKNCGSTLVWRSKDGKHFAVSLQAFDKPSSFTFVQQIFTDEKPSSYSFAQTTQNMTGPEFIAMITSAEH	not soluble
MGSDKIHHHHHHMVNIEIDEGSGFCFGVTTAIRKAEEELAKGNTLYCLGDIVHNGQECERLKKMGLITINHEEFAQLHDAKVLLRAHGEPPETYAIARTNNIEIIDATCPVVLRLQKRIKQEYDNVPASQDTQIVIYGKNGHAEVLGLVGQTHGKAIVIETPAEAAHLDFTKDIRLYSQTTKSLEEFWQIIEYIKEHISPDATFEYYDTICRQVANRMPNIRKFAAAHDLIFFVCGRKSSNGKILYQECKKINPNSYLIDQPEEIDRNLLEDVRSIGICGATSTPKWLMEECKKAILNEK	not soluble

For the next question, use this sequence.
Q: Quick check: soluble on expression in E. coli of MGSDKIHHHHHHLPTIEQNRAPPFLAGLFCAIDLERRFLSNGKQKDFIMLDANTAQNPALLTVGYEGTDLRRFLACLEQSGVKTLVDVRERAQSRKKGFSKTALAEALAGIGIRYVHLRDLGDPKPGRDAARAGDYETFRKVFTSHMDTDAAKSALSELDTLAKEDRTCILCFERCHTECHRAIVATYLKELSPYDVVHVEV ?
Ans: not soluble

Taken from the DeepSol protein solubility set.
